system: H4 cells overexpressing alpha-synuclein hemi-Venus fusion constructs (V1S+SV2); experiment: Cellular model of aggregated alpha-synuclein-dependent toxicity, V1S+SV2 H4 cells; format: cell-based; settings: 10 μM compound, 100 μM FeCl3, 0.75% DMSO, 48 h, read-out: Change in fraction of condensed nuclei (rel. to DMSO control) [%]
Reported inhibition at 10 µM by item:
Give just the numeric value; % need not be written.

Worked examples, 3 compounds total:
Fc1cncc(-c2cc(-c3ccc4c(c3)OCO4)n[nH]2)c1 [Compound 13] | -46
CN(C)c1ccc(-c2cc(-c3ccnc(Br)c3)[nH]n2)cn1 [Compound 4] | -33.7
Fc1cccc(-c2cc(-c3ccc4c(c3)OCO4)n[nH]2)n1 [Compound 11] | -123

Now consider the entry below.
Task: # return recorded inhibition at 10 µM for entry Brc1cncc(-c2cc(-c3ccc4c(c3)OCO4)n[nH]2)c1 [Compound 10]
Result: 50.3

* * *

target: alpha-synuclein (sonicated fibrils) (Homo sapiens, UniProt P37840); construct: made in house; host or cells: E. coli; test: Modified competition binding assay, protocol 3b, reference ligand [3H]-compound 1; conditions: Table 6 comparison series, reference ligand [3H]-compound 1 (1 nM), read-out: Ki (nM), sonicated alpha-synuclein fibrils
Value type: Ki
Express the reported value numerically, then name its unit.

Worked examples, 2 compounds total:
CN(C)c1ccc(-c2cc(-c3ccnc(Br)c3)[nH]n2)cc1 [Compound 1] | 0.4 nM
CNc1ccc(-c2cc(-c3cccc(Br)c3)[nH]n2)cc1 [Compound 64, reference compound] | 3.4 nM

Now consider the entry below.
Task: # return recorded Ki for entry CN(C)c1ccc(-c2cc(-c3cccc(Br)c3)[nH]n2)cc1 [Compound 65, reference compound]
Result: 1.9 nM

* * *

biological target: alpha-synuclein (fibrils) (Homo sapiens, UniProt P37840); construct: made in house; host or cells: E. coli; assay: Competition binding assay, protocol 3a, reference ligand [3H]-compound 1, alpha-synuclein fibrils; details: Experiment A, reference ligand [3H]-compound 1 (1 nM), read-out: Ki (nM) alpha-synuclein (fibrils)
Reported Ki by item:

Worked examples, 3 compounds total:
Brc1cc(-c2cc(-c3ccc4c(c3)OCO4)n[nH]2)ccn1 [Compound 9] | 2 nM
CN(C)c1ccc(-c2cc(-c3ccnc(Br)c3)[nH]n2)cn1 [Compound 4] | 8 nM
CN(C)c1ncc(-c2cc(-c3ccnc(Br)c3)[nH]n2)cn1 [Compound 6] | 24 nM

Task: # return recorded Ki for entry CN(C)c1ccc(-c2cc(-c3ccnc(F)c3)[nH]n2)cc1 [Compound 3]
Result: < 0.1 nM

Task: # return recorded Ki for entry Brc1cncc(-c2cc(-c3ccc4c(c3)OCO4)n[nH]2)c1 [Compound 10]
Result: 34 nM

Task: # return recorded Ki for entry CN(C)c1ncc(-c2cc(-c3ccnc(F)c3)[nH]n2)cn1 [Compound 8]
Result: 43 nM

Task: # return recorded Ki for entry CN(C)c1ncc(-c2cc(-c3cccc(Br)c3)[nH]n2)cn1 [Compound 5]
Result: 27 nM

* * *

Target: alpha-synuclein (fibrils) (Homo sapiens, UniProt P37840)
Construct: made in house; host or cells: E. coli
Test: Competition binding assay, protocol 3a, reference ligand [3H]-compound 1, alpha-synuclein fibrils
Conditions: Experiment B, reference ligand [3H]-compound 1 (1 nM), read-out: Ki (nM) alpha-synuclein (sonicated fibrils)
Protocol: Alpha-synuclein and tau46 were purified from E. coli according to established protocols (Nuscher B, et al., J. Biol. Chem., 2004; 279(21):21966-75), Aβ1-42 was obtained from rPeptide, Watkinsville, Ga., USA. […] Assay plates were incubated under agitation at 37° C. for 2 h covered by plastic foil (Resealable tape, PerkinElmer, Waltham, Mass., USA). […] Radioactivity was plotted against the increasing tritium-labeled compound or cold compound concentrations. […]
Value type: log10 Ki (log10 of the value in nM)
In our notation, the value equals log10 of Ki in nM.

Worked examples, 2 compounds total:
Brc1cc(-c2cc(-c3ccc(N4CCC4)cc3)n[nH]2)ccn1 [Compound 17] | 0.30
Brc1cncc(-c2cc(-c3ccc4c(c3)OCO4)n[nH]2)c1 [Compound 10] | 1.40

Task: # return recorded log10 Ki for entry CN(C)c1ccc(-c2cc(-c3ccnc(F)c3)[nH]n2)cc1 [Compound 3]
Result: 0.48

Task: # return recorded log10 Ki for entry Fc1cc(-c2cc(-c3ccc4c(c3)OCO4)n[nH]2)ccn1 [Compound 12]
Result: 0.95

Task: # return recorded log10 Ki for entry CN(C)c1ccc(-c2cc(-c3ccnc(Br)c3)[nH]n2)cn1 [Compound 4]
Result: 1.11

* * *

target: aggregated tau46 (Homo sapiens); construct: made in house; host or cells: E. coli; assay: Saturation binding assay, protocol 2a, tau46 fibrils; settings: saturation assay protocol 2a, [3H]-labeled compound
Sequence (P10636 1-412 isoform P10636-7): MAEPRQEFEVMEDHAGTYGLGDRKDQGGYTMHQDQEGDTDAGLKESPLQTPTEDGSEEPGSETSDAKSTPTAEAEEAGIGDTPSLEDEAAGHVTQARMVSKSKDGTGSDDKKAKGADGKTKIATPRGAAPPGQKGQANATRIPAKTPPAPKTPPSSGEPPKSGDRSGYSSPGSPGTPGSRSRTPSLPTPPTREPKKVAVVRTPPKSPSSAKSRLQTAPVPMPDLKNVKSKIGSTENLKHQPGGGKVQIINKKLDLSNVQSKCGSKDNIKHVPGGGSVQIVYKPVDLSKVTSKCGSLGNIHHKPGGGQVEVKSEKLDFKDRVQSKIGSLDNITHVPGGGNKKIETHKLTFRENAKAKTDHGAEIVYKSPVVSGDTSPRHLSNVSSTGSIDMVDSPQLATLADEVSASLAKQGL
Reported Kd by item:

CNc1ccc(-c2cc(-c3ccnc(Br)c3)[nH]n2)cc1 | > 15 nM

Now consider the entry below.
Task: # return recorded Kd for entry CN(C)c1ccc(-c2cc(-c3ccnc(Br)c3)[nH]n2)cc1
Result: > 5 nM

* * *

Biological target: alpha-synuclein (sonicated fibrils) (Homo sapiens, UniProt P37840)
Construct: made in house; host or cells: E. coli
Test: Modified competition binding assay, protocol 3b, reference ligand [3H]-compound 2
Settings: Table 5, reference ligand [3H]-compound 2 (1 nM)
Experimental: Alpha-synuclein and tau46 were purified from E. coli according to established protocols (Nuscher B, et al., J. Biol. Chem., 2004; 279(21):21966-75), Aβ1-42 was obtained from rPeptide, Watkinsville, Ga., USA. Fibrils were prepared by aggregation of recombinant protein via constant agitation. […] Filtration and readout were performed as described for saturation binding assays. […]
Reported Ki by item:
Express the reported value numerically, then name its unit.

CNc1ccc(-c2cc(-c3ccnc(F)c3)[nH]n2)cc1 [Compound 24] | 0.8 nM
CNc1ccc(-c2cc(-c3cccc(Br)n3)[nH]n2)cc1 [Compound 58] | 5 nM

Now consider the entry below.
Task: # return recorded Ki for entry CNc1ccc(-c2cc(-c3cccc(Cl)n3)[nH]n2)cc1 [Compound 41]
Result: 14 nM

* * *

tested on: H4 cells overexpressing alpha-synuclein hemi-Venus fusion constructs (V1S+SV2); assay: Cellular model of aggregated alpha-synuclein-dependent toxicity, V1S+SV2 H4 cells; format: cell-based; details: 10 μM compound, 100 μM FeCl3, 0.75% DMSO, 48 h
Reported Change in cell number (rel. to DMSO control) [%] by item:
Give just the numeric value; % need not be written.

Task: # return recorded Change in cell number (rel. to DMSO control) [%] for entry CN(C)c1ccc(-c2cc(-c3ccnc(Br)c3)[nH]n2)cn1 [Compound 4]
Result: −36.9

Task: # return recorded Change in cell number (rel. to DMSO control) [%] for entry CN(C)c1ccc(-c2cc(-c3ccnc(Br)c3)[nH]n2)cc1 [Compound 1]
Result: −21.2

Task: # return recorded Change in cell number (rel. to DMSO control) [%] for entry Cn1nc(-c2ccnc(Br)c2)cc1-c1ccc2c(c1)OCO2 [Compound 19]
Result: −5.7

Task: # return recorded Change in cell number (rel. to DMSO control) [%] for entry CN(C)c1ccc(-c2cc(-c3ccnc(F)c3)[nH]n2)cc1 [Compound 3]
Result: −11.3

* * *

test system: H4 cells overexpressing full-length alpha-synuclein; assay: Cellular model of aggregated alpha-synuclein-dependent toxicity, full-length alpha-synuclein H4 cells; assay type: cell-based; conditions: 10 μM compound, 100 μM FeCl3, 0.75% DMSO, 48 h
Value type: Change in cell number (rel. to DMSO control) [%]
Express the reported value numerically, then name its unit.

CN(C)c1ccc(-c2cc(-c3ccnc(Br)c3)[nH]n2)cn1 [Compound 4] | −48.6%
CN(C)c1ncc(-c2cc(-c3ccnc(F)c3)[nH]n2)cn1 [Compound 8] | −5.7%
Fc1cccc(-c2cc(-c3ccc4c(c3)OCO4)n[nH]2)n1 [Compound 11] | −20.0%
CN(C)c1ccc(-c2cc(-c3ccnc(Br)c3)[nH]n2)cc1 [Compound 1] | −27.3%
CN(C)c1ncc(-c2cc(-c3ccnc(Br)c3)[nH]n2)cn1 [Compound 6] | −31.0%

Task: # return recorded Change in cell number (rel. to DMSO control) [%] for entry CNc1ccc(-c2cc(-c3ccnc(Br)c3)[nH]n2)cc1 [Compound 2]
Result: −44.2%

Task: # return recorded Change in cell number (rel. to DMSO control) [%] for entry Clc1cc(-c2cc(-c3ccc4c(c3)OCO4)n[nH]2)ccn1 [Compound 14]
Result: −32.0%

* * *

tested on: H4 cells overexpressing alpha-synuclein hemi-Venus fusion constructs (V1S+SV2); assay: Cellular model of aggregated alpha-synuclein-dependent toxicity, V1S+SV2 H4 cells; assay type: cell-based; conditions: 10 μM compound, 100 μM FeCl3, 0.75% DMSO, 48 h, read-out: Change in fraction of condensed nuclei (rel. to DMSO control) [%]
// bucketize inhibition at 10 µM: group 1: < -20%; group 2: ≥ -20% and < 30%; group 3: ≥ 30%

Please review the following examples before continuing.
Nc1ccc(-c2cc(-c3ccnc(Br)c3)[nH]n2)cc1 [Compound 7] | group 3
CN(C)c1ncc(-c2cc(-c3cccc(Br)c3)[nH]n2)cn1 [Compound 5] | group 2
Brc1ccnc(-c2cc(-c3ccc4c(c3)OCO4)n[nH]2)c1 [Compound 16] | group 1
Fc1cc(-c2cc(-c3ccc4c(c3)OCO4)n[nH]2)ccn1 [Compound 12] | group 1
CN(C)c1ccc(-c2cc(-c3ccnc(F)c3)[nH]n2)cc1 [Compound 3] | group 3

Task: Tag the class for Cn1nc(-c2ccnc(Br)c2)cc1-c1ccc2c(c1)OCO2 [Compound 19]
Result: group 2

Task: Tag the class for Cn1nc(-c2ccc3c(c2)OCO3)cc1-c1ccnc(Br)c1 [Compound 18]
Result: group 2

Task: Tag the class for Brc1cc(-c2cc(-c3ccc(N4CCC4)cc3)n[nH]2)ccn1 [Compound 17]
Result: group 3

Task: Tag the class for Clc1cc(-c2cc(-c3ccc4c(c3)OCO4)n[nH]2)ccn1 [Compound 14]
Result: group 1

Task: Tag the class for CN(C)c1ccc(-c2cc(-c3ccnc(Br)c3)[nH]n2)cc1 [Compound 1]
Result: group 2

Task: Tag the class for Brc1cc(-c2cc(-c3ccc4c(c3)OCO4)n[nH]2)ccn1 [Compound 9]
Result: group 3

Task: Tag the class for CN(C)c1ncc(-c2cc(-c3ccnc(Br)c3)[nH]n2)cn1 [Compound 6]
Result: group 1

Task: Tag the class for Brc1cccc(-c2cc(-c3ccc4c(c3)OCO4)n[nH]2)n1 [Compound 15]
Result: group 1

Task: Tag the class for CN(C)c1ncc(-c2cc(-c3ccnc(F)c3)[nH]n2)cn1 [Compound 8]
Result: group 2

Task: Tag the class for CNc1ccc(-c2cc(-c3ccnc(Br)c3)[nH]n2)cc1 [Compound 2]
Result: group 3
